Assay: Multi-angle light scattering, molecular weight of peptide aggregates and degree of aggregation
Format: physicochemical
Conditions: 0.05 mg/ml peptide
Where no end group is shown, it is not given here.
Assignment: determine reported N, degree of aggregation (molecules per particle) for the given substances.
Give bare numbers, in molecules per particle.

Solved cases (3 shown):
SEQ ID NO: 1-GGGGG: TM peptide of SEQ ID NO: 1 with polyglycine tail GGGGG (LLFVITLPFWAVDAVANWYFGNDD; C-terminal GGGGG tail); 1614
LLFVITLPFWAVDAVANWYFGNDD [SEQ ID NO: 1]; 4090
SEQ ID NO: 1-PEG11: TM peptide of SEQ ID NO: 1 with hydrophilic oligomer PEG11 added (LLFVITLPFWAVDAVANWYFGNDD; not fully specified; also: PEG11 added); 743

Query :: Which N, degree of aggregation (molecules per particle) reading was recorded for the substance SEQ ID NO: 1-PEG27: TM peptide of SEQ ID NO: 1 with hydrophilic oligomer PEG27 added; CXCR4 peptide nanoparticles (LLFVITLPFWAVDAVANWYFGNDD; not fully specified; also: PEG27 added) ?
Result :: 286

Sourced from patent US9326950B2
